Property: IC50; scope: individual molecules
Molecular target: Aminopeptidase N (Plasmodium falciparum FcB1/Columbia)
Sequence (O96935 whole entry): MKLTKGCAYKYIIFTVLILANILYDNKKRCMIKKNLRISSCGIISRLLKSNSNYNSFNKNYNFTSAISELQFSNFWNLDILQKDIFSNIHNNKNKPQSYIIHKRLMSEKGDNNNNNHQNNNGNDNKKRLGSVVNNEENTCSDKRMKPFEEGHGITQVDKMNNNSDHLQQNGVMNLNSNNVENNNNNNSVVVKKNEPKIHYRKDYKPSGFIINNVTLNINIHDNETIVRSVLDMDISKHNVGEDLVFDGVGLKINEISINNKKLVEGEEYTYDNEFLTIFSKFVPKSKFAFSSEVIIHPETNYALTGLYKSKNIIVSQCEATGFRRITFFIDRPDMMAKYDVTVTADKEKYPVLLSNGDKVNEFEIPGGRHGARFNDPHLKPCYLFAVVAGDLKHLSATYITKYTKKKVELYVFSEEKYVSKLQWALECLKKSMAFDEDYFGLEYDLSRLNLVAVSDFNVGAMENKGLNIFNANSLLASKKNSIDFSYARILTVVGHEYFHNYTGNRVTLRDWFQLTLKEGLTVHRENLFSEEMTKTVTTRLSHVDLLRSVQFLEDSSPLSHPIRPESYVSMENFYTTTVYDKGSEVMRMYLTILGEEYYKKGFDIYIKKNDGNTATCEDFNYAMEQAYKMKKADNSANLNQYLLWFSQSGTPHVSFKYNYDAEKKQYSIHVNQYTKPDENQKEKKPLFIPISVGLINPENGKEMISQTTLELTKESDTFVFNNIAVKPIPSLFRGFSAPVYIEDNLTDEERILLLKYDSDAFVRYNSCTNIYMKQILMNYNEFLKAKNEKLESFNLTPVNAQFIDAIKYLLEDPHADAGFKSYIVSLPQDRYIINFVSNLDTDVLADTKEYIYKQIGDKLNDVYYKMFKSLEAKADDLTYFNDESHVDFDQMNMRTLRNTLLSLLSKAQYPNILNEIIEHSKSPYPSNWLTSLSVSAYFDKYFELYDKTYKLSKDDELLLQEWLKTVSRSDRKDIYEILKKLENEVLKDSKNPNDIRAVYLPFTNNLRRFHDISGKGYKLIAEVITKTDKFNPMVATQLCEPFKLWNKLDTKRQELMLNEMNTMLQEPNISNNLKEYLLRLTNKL
Test: malaria alanyl aminopeptidase activity blockers – biochemical, fluorogenic H-Leu-NHMec substrate, 1536-well (AID 1445)
Design: species or system Plasmodium falciparum 3D7, 3D7
Activity calls are given as the source filed them. How the calls were made is not given here.

| molecule | study-system | IC50 |
| --- | --- | --- |
| CS(=O)(=O)C1=NSC2=NC(=O)/C(=C\c3cccn3-c3ccc(Cl)cc3)C(=N)N21 | Aminopeptidase N (Plasmodium falciparum FcB1/Columbia) | 5.15 µM (active) |
| O=C1NC(=S)NC(=O)C1=NNc1ccc(-c2ccccc2)cc1[N+](=O)[O-] | Aminopeptidase N (Plasmodium falciparum FcB1/Columbia) | 10.5 µM (active) |
| CCOc1ccccc1Nc1nnc(SCC(=O)NC(Cc2c[nH]c3ccccc23)C(=O)O)s1 (centres undefined) | Aminopeptidase N (Plasmodium falciparum FcB1/Columbia) | 67.4 µM (active) |
| COc1ccccc1N1C(=N)S/C(=C\c2ccc(-c3ccccc3C(=O)O)o2)C1=O | Aminopeptidase N (Plasmodium falciparum FcB1/Columbia) | 21.7 µM (active) |

Cited source: ChEMBL document CHEMBL1201862
